Where these numbers come from: ChEMBL document CHEMBL2157969

- Target System: Quinolone resistance protein NorA (Staphylococcus aureus)
- Experimental Details: Inhibition of norA-mediated ethidium bromide efflux in methicillin-resistant Staphylococcus aureus SA-1199B at 10 ug/ml by spectrofluorometric analysis
The threshold is inclusive: inhibition of exactly 70% counts as Criterion met; values below receive Criterion not met.

CN(C)CCOc1ccc(C(=O)/C=C/c2ccc(N(C)C)cc2)cc1 :: Criterion met
COc1ccc(OC)c(/C=C/C(=O)c2ccc(O)cc2)c1 :: Criterion met
COc1cc(O)cc(C)c1/C=C/C(=O)c1ccc(O)cc1 :: Criterion met

Exercise: Please indicate if the recorded inhibition for COc1ccc(/C=C/C(=O)c2ccc(O)cc2)c(OC)c1 meets or exceeds 70%.
Key: Criterion not met

Exercise: Please indicate if the recorded inhibition for CN(C)CCOc1ccc(C(=O)/C=C/c2ccc(Oc3ccccc3)cc2)cc1 meets or exceeds 70%.
Key: Criterion met
